Data origin, for the record: patent US20200055939A1

# Test System: T1, huMICA*004 alpha 3-his (human)
# T1 construct: whole construct entry: GS, alpha 3 domain, GNS, His8; also called MICA004.His; MICA*004 alpha3 construct
# T1 chain: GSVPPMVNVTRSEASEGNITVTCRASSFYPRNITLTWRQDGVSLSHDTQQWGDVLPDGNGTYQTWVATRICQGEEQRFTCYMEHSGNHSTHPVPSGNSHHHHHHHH
# Protocol Description: SPR, Biacore 8K, antibody on Protein A chip
# Kd annotations
Value expressed in nM; do not type the unit.

Illustrative cases are given below, each with its answer.
Binder	Quantity	Measured Number
1D5v21 (antibody, IgG1, V domains shown, humanized variant of 1D5) VH: EIQLVQSGAEVKKPGASVKVSCKASGYAFTSQNIYWVRQAPGQGLEWIGYIEPYNVVPMYNPKFKGRATITVDKSTSTAYLELSSLRSEDTAVYYCARSGSSNFDYWGQGTLVTVSS VL: DIQLTQSPSSLSASVGDRVTITCSASSSISSHYLHWYQQKPGKSPKLLIYRTSNLASGVPSRFSGSGSGTDYTLTISSLQPEDFATYYCQQGSSLPLTFGQGTKVEIK	Kd	1.08
1D5v5 (antibody, IgG1, V domains shown, humanized variant of 1D5) VH: EIQLVQSGAEVKKPGASVKVSCKASGYAFTSQNIYWVRQAPGQGLEWIGYIEPYNVVPMYNPKFKGRATLTVDKSTSTAYMELRSLRSDDTAVYYCARSGSSNFDYWGQGTLVTVSS VL: EIVLTQSPDFQSVTPKEKVTITCSASSSISSHYLHWYQQKPDQSPKLLIKRTSNLASGVPSRFSGSGSGTDFTLTINSLEAEDAATYYCQQGSSLPLTFGQGTKVEIK	Kd	2.13

Q: Given 15F11v2 (antibody, IgG1, V domains shown, humanized variant of 15F11) VH: EIQLVQSGAEVKKPGASVKVSCKPSGYAFTSNNIYWVRQAPGQGLEWIGYIDPYIGRIIYNQQFKDRATLTVDKSTSTAYLELSSLRSEDTAVYYCSRSGERSNFDYWGQGTLVTVSS VL: EIVLTQSPATLSLSPGERATLSCSASSSISSNYLHWYQQKPGQAPRLLIYRTSNLASGIPARFSGSGSGTDFTLTISSLEPEDFAVYYCQQGGSLPLTFGQGTKVEIK , state its recorded Kd.
A: 2.74
